Data provenance is the supplement of paper PMC10724198.

Listed here are sequences together with their documented protein stability index.
Tested on: Saccharomyces cerevisiae
experiment.summary: protein stability index of tFT-peptide fusion (C-terminal peptide) (PSI (0-1 scale)); higher = more stable (slower turnover)
protocol.conditions: genetic background: das1 deletion; temperature: 30 C
Write the number on its own, no unit after it.

Completed entries (count: 3):
{"ordered.residues": "DITYDDYKSIDF [SUT1 C-terminal 12 aa]", "assay.value": 0.694}
{"ordered.residues": "RYAHIGGLHQRT [PRR2 C-terminal 12 aa]", "assay.value": 0.709}
{"ordered.residues": "PEMTRRGRGPRR [RPA49 C-terminal 12 aa]", "assay.value": 0.714}

// moving on: another record for protein stability index
In: Request - read-out protein stability index | tested on Saccharomyces cerevisiae | sequence DGKIKIWKISRN [GID7 C-terminal 12 aa]
Out: 0.701
